# shrunken log2 fold change values compiled below
- Test system: Escherichia coli TOP10;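 note: peptides expressed intracellularly from a pBAD plasmid library in pooled LB shake-flask culture, induced with 0.3% L-arabinose, DNA abundance read by NGS, three biological replicates, DESeq2 with apeglm shrinkage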
- PROCEDURE_SUMMARY: shrunken log2 fold change of peptide-encoding DNA abundance (4.5 h post-induction vs induction); higher = less antimicrobial activity (less host growth inhibition)
- SETUP_CONDITIONS: time post-induction: 4.5 h; library: site-saturation at positions 5, 18, 19, 20
PROPERTY_NAME: shrunken log2 fold change

>>> result_value("RRIRWRPPRLPRPRPRPENVPRP")
0.0417
>>> result_value("RRIRQRPPRLPRPRPRPGYRPRP")
-0.354
>>> result_value("RRIRFRPPRLPRPRPRPPSNPRP")
0.324
>>> result_value("RRIRCRPPRLPRPRPRPTDRPRP")
0.15
>>> result_value("RRIRHRPPRLPRPRPRPLDCPRP")
-0.384
>>> result_value("RRIRHRPPRLPRPRPRPFSHPRP")
-0.254
>>> result_value("RRIRIRPPRLPRPRPRPQMRPRP")
0.0729
>>> result_value("RRIRGRPPRLPRPRPRPRGQPRP")
0.803
>>> result_value("RRIRSRPPRLPRPRPRPFLCPRP")
-0.634
>>> result_value("RRIRNRPPRLPRPRPRPEDMPRP")
-0.0541
>>> result_value("RRIRIRPPRLPRPRPRPMSSPRP")
-0.215
>>> result_value("RRIRPRPPRLPRPRPRPERVPRP")
0.451
>>> result_value("RRIRYRPPRLPRPRPRPQWIPRP")
0.00701
>>> result_value("RRIRPRPPRLPRPRPRPVGPPRP")
0.427
>>> result_value("RRIRQRPPRLPRPRPRPNSWPRP")
0.0283
>>> result_value("RRIRIRPPRLPRPRPRPALLPRP")
0.178
>>> result_value("RRIRNRPPRLPRPRPRPCEQPRP")
-0.00776
>>> result_value("RRIRNRPPRLPRPRPRPWEVPRP")
0.00408
>>> result_value("RRIRDRPPRLPRPRPRPSVKPRP")
-0.256
>>> result_value("RRIRDRPPRLPRPRPRPNMHPRP")
1.35
>>> result_value("RRIRPRPPRLPRPRPRPMVPPRP")
0.18
>>> result_value("RRIRRRPPRLPRPRPRPGKPPRP")
0.293
>>> result_value("RRIRQRPPRLPRPRPRPLHSPRP")
-0.295
>>> result_value("RRIRLRPPRLPRPRPRPPKVPRP")
0.287
>>> result_value("RRIRRRPPRLPRPRPRPRAYPRP")
-0.0105
>>> result_value("RRIRPRPPRLPRPRPRPEKYPRP")
-0.562
>>> result_value("RRIRYRPPRLPRPRPRPLGWPRP")
0.0401
>>> result_value("RRIRTRPPRLPRPRPRPSYQPRP")
-0.18
>>> result_value("RRIRHRPPRLPRPRPRPTWVPRP")
0.078
>>> result_value("RRIRERPPRLPRPRPRPHVQPRP")
-0.434
>>> result_value("RRIRPRPPRLPRPRPRPFHWPRP")
0.0105
>>> result_value("RRIRHRPPRLPRPRPRPRKTPRP")
0.00946
>>> result_value("RRIRQRPPRLPRPRPRPVVMPRP")
0.0928
>>> result_value("RRIRARPPRLPRPRPRPPVPPRP")
0.638
>>> result_value("RRIRRRPPRLPRPRPRPWLCPRP")
0.102
>>> result_value("RRIRDRPPRLPRPRPRPMLKPRP")
0.111
>>> result_value("RRIRNRPPRLPRPRPRPLFTPRP")
-0.0916
>>> result_value("RRIRARPPRLPRPRPRPDVDPRP")
1.1
>>> result_value("RRIRWRPPRLPRPRPRPQAIPRP")
0.204
>>> result_value("RRIRDRPPRLPRPRPRPLHVPRP")
-0.133
>>> result_value("RRIRDRPPRLPRPRPRPQFFPRP")
-0.00144
>>> result_value("RRIRVRPPRLPRPRPRPYHDPRP")
-0.182
>>> result_value("RRIRFRPPRLPRPRPRPIAPPRP")
0.0659
>>> result_value("RRIRVRPPRLPRPRPRPKLQPRP")
0.32
>>> result_value("RRIRHRPPRLPRPRPRPITMPRP")
-0.18
>>> result_value("RRIRRRPPRLPRPRPRPGWIPRP")
0.442
>>> result_value("RRIRCRPPRLPRPRPRPFKSPRP")
0.122
>>> result_value("RRIRTRPPRLPRPRPRPIMKPRP")
-0.253
>>> result_value("RRIRERPPRLPRPRPRPKPHPRP")
0.000708
>>> result_value("RRIRSRPPRLPRPRPRPKYEPRP")
-0.147
>>> result_value("RRIRPRPPRLPRPRPRPHHNPRP")
-0.859
>>> result_value("RRIRERPPRLPRPRPRPEFYPRP")
-0.377
>>> result_value("RRIRWRPPRLPRPRPRPTWSPRP")
0.541
>>> result_value("RRIRQRPPRLPRPRPRPNDLPRP")
-0.0128
>>> result_value("RRIRWRPPRLPRPRPRPFQSPRP")
-0.0153
>>> result_value("RRIRHRPPRLPRPRPRPEFPPRP")
0.0962
>>> result_value("RRIRQRPPRLPRPRPRPFKAPRP")
-0.059
>>> result_value("RRIRNRPPRLPRPRPRPEQTPRP")
0.235
>>> result_value("RRIRMRPPRLPRPRPRPHKYPRP")
-0.152
>>> result_value("RRIRCRPPRLPRPRPRPCFRPRP")
-0.33
>>> result_value("RRIRLRPPRLPRPRPRPYFTPRP")
-0.468
>>> result_value("RRIRCRPPRLPRPRPRPSPWPRP")
0.0328
>>> result_value("RRIRKRPPRLPRPRPRPVQRPRP")
0.0869
